# experimentalProtocol: Solubility Studies in FaSSIF, FeSSIF, FaSSGF (24 hours, room temperature, UPLC-UV)
# Assay type: physicochemical
# assayContext: fassgf or other biorelevant, kinetic from dmso stock; solubility in FaSSGF, 24 hours at room temperature; read-out: FaSSGF
# Description: Media according to Biorelevant Media protocols was prepared. 10 μL of 10 mM in DMSO stock solutions of test compounds was added to 96-well deep plate. 490 μL of FaSSIF, FeSSIF, or FaSSGF was then added into appropriate wells of 96-well deep plate. The plate was vortexed for 2 minutes then placed on a plate shaker for 24 hours at room temperature. […] Concentration was calculated with a 3-point standard curve.
Where solubility kinetic at 24 h equals or exceeds 20 µM, the correct label is 1; where it does not, the label is -1.

Examples from the recorded data:
[[record]]
molecule = "CC(c1ccccc1F)c1c(F)ccc2c1NC(NCc1ncccc1F)=NS2(=O)=O (centres unmarked) [Compound 9-1]"
classification = -1

[[record]]
molecule = "CC(c1ccccc1F)c1c(F)ccc2c1NC(NCc1cccc(F)c1)=NS2(=O)=O (single isomer, unassigned)"
classification = -1

[[record]]
molecule = "O=S1(=O)N=C(NCc2ncccc2F)Nc2c(Oc3ccccc3Cl)cc(F)cc21"
classification = -1


Textbook exercise: given the entry CC(c1ccc(F)cc1)c1c(F)ccc2c1NC(NCc1ncccc1F)=NS2(=O)=O (single isomer, unassigned) , state whether its solubility kinetic at 24 h is greater than or equal to 20 µM.
-1

Textbook exercise: given the entry CC(c1ccccc1F)c1c(F)ccc2c1NC(NCc1ncccc1F)=NS2(=O)=O (single isomer, unassigned) [Compound 10-1B] , state whether its solubility kinetic at 24 h is greater than or equal to 20 µM.
1
